Measured IC50 accompanies every entry in the list below.
- Test system: MV4-11
- assay: Cytotoxicity against FLT3-dependent human MV4-11 cells after 72 hrs by MTT assay
- Format: functional, cell-based
- settings: MV4-11, 72 h

(Q) Given the compound `COc1cc2ncnc(Sc3nc(C)c(CC(=O)Nc4ccc(NC(C)=O)cc4)s3)c2cc1OC` , what is its reported IC50?
(A) > 5 µM

(Q) Given the compound `COCCOc1cc2ncnc(Sc3nc(C)c(CC(=O)Nc4nc5ccc(OC)cc5s4)s3)c2cc1OCCOC` , what is its reported IC50?
(A) 1.9 µM

(Q) Given the compound `COc1cc2ncnc(Sc3nccs3)c2cc1OCCN1CCOCC1` , what is its reported IC50?
(A) 2.95 µM

(Q) Given the compound `COCCOc1cc2ncnc(Sc3nc(C)c(CC(=O)Nc4cc(C)cc(C)c4)s3)c2cc1OCCOC` , what is its reported IC50?
(A) 0.625 µM

(Q) Given the compound `COCCOc1cc2ncnc(Sc3nnc(NC(C)=O)s3)c2cc1OCCOC` , what is its reported IC50?
(A) > 11 µM

---

- Test system: MV4-11
- assay: Cytotoxicity against FLT3-dependent human MV4-11 cells after 72 hrs by MTT assay
- Assay type: functional, cell-based
- settings: MV4-11, 72 h
result-type: pIC50
# reply with the number alone; pIC50 is -log10 of concentration in mol/L

Consider the following illustrative entries.
COCCOc1cc2ncnc(Sc3nccs3)c2cc1OCCOC | 5.85
COCCOc1cc2ncnc(Sc3nc(CC(=O)Nc4ccc(C(F)(F)F)cc4)cs3)c2cc1OCCOC | 5.54

(Q) Given the molecule `COCCOc1cc2ncnc(Sc3nnc(NC(=O)Nc4ccc(C(F)(F)F)cc4)s3)c2cc1OCCOC` , what is its reported pIC50?
(A) 6.52

(Q) Given the molecule `COCCOc1cc2ncnc(Sc3nc(CC(=O)Nc4cc(C)cc(C)c4)cs3)c2cc1OCCOC` , what is its reported pIC50?
(A) 5.04

(Q) Given the molecule `COc1cc2ncnc(Sc3nccs3)c2cc1OCCN1CCCCC1` , what is its reported pIC50?
(A) 5.79
